tested on: NCI-H522 lung; experiment: NCI tumour cell line growth inhibition, 48 h; in the data active = GI50 below about 0.43 µM; inactive = the rest
Hello, when you answer, please use one of the following outcomes: True for active, False for inactive

// known answers, use as guide
compound	assigned-category
CC1=C(C)C(=O)O[C@@H]([C@](C)(O)[C@]2(O)CC[C@@]3(O)[C@@H]4C[C@H]5O[C@]56CC=CC(=O)[C@]6(C)[C@H]4CC[C@]23C)C1	True
Cc1ncc(NC(=O)c2ccc(CN3CCN(C)CC3)c(C(F)(F)F)c2)cc1Nc1nccc(-c2cccnc2)n1	False

Consider now this further compound.
Exercise: Look up the recorded call for CCN(CCO)CCNc1ccc(C)c2sc3cc(Cl)ccc3c(=O)c12 in this test.
Solution: False
